Tested on: larvae of the mosquito Anopheles albimanus
TEST SUMMARY: Toxicity to mosquito larvae as described by WHO (VBC/1968), Anopheles albimanus
Assay type: in vivo
The following compounds are shown together with reported LC50 values.
EXPERIMENTAL ENDPOINT: LC50 (µg/mL)

COc1ccc(C(c2ccc(SC)cc2)C(Cl)(Cl)Cl)cc1 (centres unmarked) | 0.044
CCc1ccc(C(c2ccc(C)cc2)C(Cl)(Cl)Cl)cc1 (centres unmarked) | 0.23
COc1ccc(C(c2ccc(C)cc2)C(Cl)(Cl)Cl)cc1 (centres unmarked) | 0.12
CCOc1ccc(C(c2ccc(SC)cc2)C(Cl)(Cl)Cl)cc1 (centres unmarked) | 0.054
COc1ccc(C(c2ccc(OC)cc2)C(Cl)(Cl)Cl)cc1 [Methoxychlor, reference compound] | 0.18
Clc1ccc(C(c2ccc(Cl)cc2)C(Cl)(Cl)Cl)cc1 [DDT, reference compound] | 0.016
CCOc1ccc(C(c2ccc(C)cc2)C(Cl)(Cl)Cl)cc1 (centres unmarked) | 0.11
CCCOc1ccc(C(c2ccc(C)cc2)C(Cl)(Cl)Cl)cc1 (centres unmarked) | 0.2

Origin of the recorded values: patent US3939277A
